- Tested on: EPHB3
- Cond: concentration: 1 μM, replicates: in singlicate; n = 1;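 also: KINOMEscan kinase panel screen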

Molecule: CN1C(=O)C(Nc2cc(Cl)c(O)c(Cl)c2)=C(c2ccc(Cl)cc2)C1=O
Display Unit: %
%Inh: 0

Molecule: COc1cc2nccc(Nc3cccc(Oc4ccccc4)c3)c2cc1OC.Cl
Display Unit: %
%Inh: 0

Molecule: COc1cccc(C2=C(N(C)c3ccccc3)C(=O)NC2=O)c1
Display Unit: %
%Inh: 3

Molecule: O=C(Nc1n[nH]c2nc(-c3ccccc3)c(Br)cc12)C1CC1
Display Unit: %
%Inh: 5

Molecule: O=C(Nc1ccc2c(c1)OCO2)NC1CCN(c2ccnc(NCc3ccc(F)cc3)n2)CC1
Display Unit: %
%Inh: 15

Molecule: CCn1c(-c2ccoc2)nc2cnccc21
Display Unit: %
%Inh: 17

Molecule: CC(C)(C)c1ccc(C(=O)Nc2cn3cc(-c4ccccc4)ccc3n2)cc1
Display Unit: %
%Inh: 3

Molecule: COc1cccc(-n2cnc3c(N)ncnc32)c1
Display Unit: %
%Inh: 0

Molecule: CCC(=O)c1c(-c2ccccc2)c2cc(Cl)ccc2c(=O)n1Cc1cc(S(C)(=O)=O)n(CCC(C)(C)O)n1
Display Unit: %
%Inh: 9

Molecule: COc1cc2ncn(-c3cc(OCc4ccncc4Br)c(C(N)=O)s3)c2cc1OC
Display Unit: %
%Inh: 0

Molecule: COc1cc(OC)cc(-c2cc3cnc(N)nc3nc2NC(=O)NC(C)(C)C)c1
Display Unit: %
%Inh: 0

Molecule: O=C(Nc1n[nH]c2cc(-c3ccccc3F)ccc12)C1CC1
Display Unit: %
%Inh: 0

Molecule: Nc1n[nH]c2nnc(-c3ccccc3)c(-c3ccccc3)c12
Display Unit: %
%Inh: 43

Molecule: CCc1nc(-c2cccc(C)c2)c(-c2ccncc2)s1
Display Unit: %
%Inh: 7

Molecule: Cc1ccccc1COc1cc(-n2cnc3cc(Cl)ccc32)sc1C(N)=O
Display Unit: %
%Inh: 0

Molecule: COC(=O)c1c(-c2ccccc2)c2cc(Br)ccc2c(=O)n1Cc1ccc(NC(=O)CCC(=O)O)cc1
Display Unit: %
%Inh: 19

Molecule: O=C(NCc1cccs1)c1cc(C(=O)c2c(Cl)cccc2Cl)c[nH]1
Display Unit: %
%Inh: 0

Molecule: Cc1ccc(Oc2ccc(Nc3ncnc4cc[nH]c34)cc2C)cn1
Display Unit: %
%Inh: 26

Molecule: COc1ccc(-c2cc3c(C)nc(N)nc3n([C@H]3CC[C@H](OCCO)CC3)c2=O)cn1
Display Unit: %
%Inh: 16

Molecule: COc1cc2ncn(-c3cc(OCCCc4ccccc4)c(C(N)=O)s3)c2cc1OC
Display Unit: %
%Inh: 0

Molecule: COc1cc2nccc(Nc3ccc(OCc4ccc(NC(C)=O)cc4)cc3)c2cc1OC.Cl
Display Unit: %
%Inh: 32

Molecule: Cn1c(=O)c(F)c(Nc2ccc(I)cc2F)c2c(=O)n(OC[C@H](O)CO)cnc21
Display Unit: %
%Inh: 17

Molecule: COc1cccc(C2=C(Nc3cccc(C(=O)O)c3)C(=O)NC2=O)c1
Display Unit: %
%Inh: 8

Molecule: COc1cc(Nc2nccc(N3CCC(NC(=O)C(C)c4ccc(Cl)cc4)C3)n2)cc(OC)c1OC (stereo not shown)
Display Unit: %
%Inh: 23

Molecule: Cc1nnc(-c2ccc(C)c(-c3ccc(C(=O)O)cc3)c2)o1
Display Unit: %
%Inh: 6

Molecule: COC(=O)c1c(-c2ccccc2)c2cc(Br)ccc2c(=O)n1Cc1ccc(S(C)(=O)=O)cc1
Display Unit: %
%Inh: 30

Molecule: COc1ccc(-n2cnc3c(N)ncnc32)cc1
Display Unit: %
%Inh: 0

Molecule: COc1cc2ncn(-c3cc(OCc4ccncc4)c(C(N)=O)s3)c2cc1OC
Display Unit: %
%Inh: 0

Molecule: CCn1c(-c2nonc2N)nc2ccccc21
Display Unit: %
%Inh: 0

Molecule: FC(F)(F)c1ccc(-c2ncn(CCCN3CCOCC3)c2-c2ccncc2)cc1
Display Unit: %
%Inh: 0

Molecule: CCCNC(=O)Nc1ccc(Oc2ncnc3ccn(C)c23)cc1
Display Unit: %
%Inh: 0

Molecule: Cc1nnc(-c2ccc3ncn(-c4ccc(S(C)=O)cc4)c3c2)o1 (stereo not shown)
Display Unit: %
%Inh: 35

Molecule: COc1cc2ncn(-c3cc(OCc4ccc(S(C)(=O)=O)cc4)c(C(N)=O)s3)c2cc1OC
Display Unit: %
%Inh: 0

Molecule: O=C1NC(=O)C(c2ccccc2)=C1Nc1cccc(O)c1
Display Unit: %
%Inh: 0

Molecule: CN1C(=O)C(Nc2ccccc2)=C(c2ccccc2)C1=O
Display Unit: %
%Inh: 0

Molecule: COc1ccc(Nc2nccc(N3CCC(NS(=O)(=O)c4ccc(NC(C)=O)cc4)C3)n2)cc1 (stereo not shown)
Display Unit: %
%Inh: 35

Molecule: Cl.NS(=O)(=O)c1cccc(Nc2cc(-c3ccc(F)cc3)n[nH]2)c1
Display Unit: %
%Inh: 0

====

Overview of recorded %Inh for various compounds
- Test system: MST3
- Construct: gene STK24
- Cond: concentration: 1 μM, replicates: in singlicate; n = 1

Compound: CCC(=O)c1c(-c2ccccc2)c2cc(Cl)ccc2c(=O)n1Cc1ccc(C(=O)O)cc1
Experimental Target: MST3
%Inh, %: 0
//
Compound: Nc1n[nH]c2ncc(-c3ccccc3)cc12 [SB-517081]
Experimental Target: MST3
%Inh, %: 0
//
Compound: COC(=O)c1c(-c2ccccc2)c2cc(Br)ccc2c(=O)n1Cc1ccc(NC(=O)CCC(=O)O)cc1
Experimental Target: MST3
%Inh, %: 7
//
Compound: Cc1nc(N(C)[C@H]2CN(C(=O)CC#N)CC[C@H]2C)c2cc[nH]c2n1
Experimental Target: MST3
%Inh, %: 8
//
Compound: Cc1ccc(Oc2ccc(Nc3ncnc4cc[nH]c34)cc2C)cn1
Experimental Target: MST3
%Inh, %: 3

====

In this section we review reported %Inh values for a set of molecules.
- Tested on: RAF1
- Cond: concentration: 1 μM, replicates: in singlicate; n = 1
Measured Endpoint: %Inh

Molecule: CN(C)c1cc(-c2ccc3c(N)n[nH]c3c2)nc(N)n1
Experimental Target: RAF1
Measured Endpoint: %Inh
Observed Result: 0%
--
Molecule: COc1cc2ncn(-c3cc(OCc4ccncc4Br)c(C(N)=O)s3)c2cc1OC
Experimental Target: RAF1
Measured Endpoint: %Inh
Observed Result: 7%
--
Molecule: COC(=O)c1c(-c2ccccc2)c2cc(Br)ccc2c(=O)n1Cc1ccc(S(C)(=O)=O)cc1
Experimental Target: RAF1
Measured Endpoint: %Inh
Observed Result: 27%
--
Molecule: Nc1nccc2scc(-c3ccc4c(c3)CCN4C(=O)Cc3ccccc3)c12
Experimental Target: RAF1
Measured Endpoint: %Inh
Observed Result: 5%
--
Molecule: Cc1ccc(-c2ccc3c(ccc4sc5c(c43)NC[C@@H](C)N=C5N(C)C)n2)cn1
Experimental Target: RAF1
Measured Endpoint: %Inh
Observed Result: 0%
--
Molecule: FC(F)(F)c1ccc(-c2ncn(CCCN3CCOCC3)c2-c2ccncc2)cc1
Experimental Target: RAF1
Measured Endpoint: %Inh
Observed Result: 0%
--
Molecule: CCS(=O)(=O)c1ccc(OC)c(Nc2ncc(-c3ccc(F)cc3)o2)c1.Cl
Experimental Target: RAF1
Measured Endpoint: %Inh
Observed Result: 9%
--
Molecule: COc1ccc(CNC(=O)NC2CCN(c3ccnc(Nc4ccc(F)cc4)n3)C2)cc1 (stereo not drawn)
Experimental Target: RAF1
Measured Endpoint: %Inh
Observed Result: 6%
--
Molecule: COc1ccc(-c2cc3c(C)nc(N)nc3n([C@H]3CC[C@H](OCCO)CC3)c2=O)cn1
Experimental Target: RAF1
Measured Endpoint: %Inh
Observed Result: 0%
--
Molecule: COc1cc(Nc2nccc(N3CCC(NC(=O)C4COc5ccccc5O4)C3)n2)cc(OC)c1OC (stereo not drawn)
Experimental Target: RAF1
Measured Endpoint: %Inh
Observed Result: 7%
--
Molecule: COc1cccc(C2=C(Nc3cccc(C(=O)O)c3)C(=O)NC2=O)c1
Experimental Target: RAF1
Measured Endpoint: %Inh
Observed Result: 11%
--
Molecule: COc1cc2ncn(-c3cc(OCc4ccncc4)c(C(N)=O)s3)c2cc1OC
Experimental Target: RAF1
Measured Endpoint: %Inh
Observed Result: 7%
--
Molecule: COc1ccc(-c2cc3c(C)nc(N)nc3n([C@H]3CC[C@H](O)CC3)c2=O)cn1
Experimental Target: RAF1
Measured Endpoint: %Inh
Observed Result: 0%
--
Molecule: O=c1cc(N2CCOCC2)nc2n(Cc3ccc(F)c(Cl)c3)ccn12
Experimental Target: RAF1
Measured Endpoint: %Inh
Observed Result: 54%
--
Molecule: Nc1ncnc2c1ncn2-c1cccc2ccccc12
Experimental Target: RAF1
Measured Endpoint: %Inh
Observed Result: 0%
--
Molecule: CCc1ccc(-c2ccc3c(c2)-c2nn(C)cc2S(=O)(=O)N3C)cc1
Experimental Target: RAF1
Measured Endpoint: %Inh
Observed Result: 19%
--
Molecule: Nc1ncnc2c1ncn2-c1cccc(F)c1
Experimental Target: RAF1
Measured Endpoint: %Inh
Observed Result: 14%
--
Molecule: COc1ccc(-n2cnc3c(N)ncnc32)cc1
Experimental Target: RAF1
Measured Endpoint: %Inh
Observed Result: 0%
--
Molecule: COc1ccc(Nc2nccc(N3CCC(NS(=O)(=O)c4ccc(NC(C)=O)cc4)C3)n2)cc1 (stereo not drawn)
Experimental Target: RAF1
Measured Endpoint: %Inh
Observed Result: 18%
--
Molecule: Cc1nnc(-c2ccc(C)c(-c3ccc(C(=O)O)cc3)c2)o1
Experimental Target: RAF1
Measured Endpoint: %Inh
Observed Result: 0%
--
Molecule: Cl.NS(=O)(=O)c1cccc(Nc2cc(-c3ccc(F)cc3)n[nH]2)c1
Experimental Target: RAF1
Measured Endpoint: %Inh
Observed Result: 10%
